target: human Mac-1 (integrin αMβ2, CD11b/CD18) (human, UniProt P11215 17-1152; P05107 23-769); assay: flow cytometry, HEK293/Mac-1 cells; MFI in PBS over MFI in PBS/MnCl2
quantity_name: Mock/Mn^2+ Ratio
Simply state the number, no unit and no words.

Example entries and their recorded answers appear below.
| binder | Mock/Mn^2+ Ratio |
| --- | --- |
| anti-Mac-1 antibody clone 27D06 (antibody, human IgG4, V domains shown) VH: QVKLQESGAEVVKPGASVKISCKASGYSFTDYNMNWVKQSNGKSLEWIGVINPNYGTTSYNQKFKGKATLTVDQSSSTAYMQLNSLTSEDSAVYYCARTYDYDGDAFAYWGQGTTVTVSS VL: DIELTQSPALMSASPGEKVTMTCRASSSVSSNNLHWYQQKSGASPKLWIYSTSNLATGAPARFSGSGSGTSYSLTISSMEAEDAATYYCQQWNSNPPTFGGGTKLEIK | 0.9 |
| anti-Mac-1 antibody clone 27G04 (antibody, human IgG4, V domains shown) VH: QVKLQESGPELVKPGASVKISCKASGYSFTDYNMNWVKQSNGKSLEWIGVINPNYGTTSYNQKFKGKATLTVDQSSSTAYMQLNSLTSEDSAVYYCARTFDYDDDAFAYWGQGTTVTVSS VL: DIELTQSPAIMSASPGEKVTITCSASSSVSDMHWYQQKSGTSPKRWIYDTSKLASGVPARFSGSGSGTSYSLTISNMEAEDAATYYCQQWSSNPPTFGAGTKLELK | 1.05 |
| anti-Mac-1 antibody clone 24F08 (antibody, human IgG4, V domains shown) VH: EVQLVESGGGLVQPGGSLRLSCAASGFTFSSYWMSWVRQAPGKGLEWVSIINYSGREADYADSVKGRFTISRDNSKNTLYLQMNSLRAEDTAVYYCARDGSYVGQAHEAFDIWGQGTLVTVSS VL: DIQMTQSPSSLSASVGDRVTITCRASQSISKYLAWYQQKPGKAPKLLIYGTSNLQSGVPSRFSGSGSGTDFTLTISSLQPEDFATYYCQQSRSWPLTFGQGTKVEIK | 1.19 |
| anti-Mac-1 antibody clone DF4-22 (antibody, human IgG4, V domains shown) VH: EVQLVESGGGLVQPGGSLRLSCAASGFTFTDYNVHWVRQAPGKGLEWVSGINSSGSETNYADSVKGRFTISRDNSKNTLYLQMNSLRAEDTAVYYCARDSVFKTVGGYDAVMDYWGQGTLVTVSS VL: DIQMTQSPSSLSASVGDRVTITCRASQSIYNYLAWYQQKPGKAPKLLIYGTSTLQSGVPSRFSGSGSGTDFTLTISSLQPEDFATYYCMQSYSSPTTFGQGTKVEIK | 0.69 |
| anti-Mac-1 antibody clone H4L2 (antibody, human IgG4, V domains shown) VH: QVQLVQSGAEVKKPGASVKVSCKASGYTFTNYWINWVRQAPGQRLEWMGNIYPSDTYINHNQKFKDRVTITRDTSASTAYMELSSLRSEDTAVYYCARSAYANYFDYWGQGTLVTVSS VL: EIVMTQSPATLSVSPGERATLSCRASQNIGTSIHWYQQKPGQAPRLLIYYASESISGIPARFSGSGSGTEFTLTISSLQSEDFAVYYCQQSDSWPTLTFGQGTKLEIK | 0.91 |

What value of Mock/Mn^2+ Ratio has been reported for the following binder? anti-Mac-1 antibody clone 24G09 (antibody, human IgG4, V domains shown) VH: EVQLVESGGGLVQPGGSLRLSCAASGFTFSDYAIGWVRQAPGKGLEWVSTIYWSGSNAYYADSVKGRFTISRDNSKNTLYLQMNSLRAEDTAVYYCARLFTLGYHGFDVWGQGTLVTVSS VL: DIQMTQSPSSLSASVGDRVTITCRASQSINTYLNWYQQKPGKAPKLLIYDASNLQSGVPSRFSGSGSGTDFTLTISSLQPEDFATYYCQQYDDLPFTFGQGTKVEIK 1.1
